# maps each entry to its MCC
Assay: Minimum cytotoxic concentration that causes microscopically detectable alteration of cell morphology in HEL cell culture
Format: cell-based
Details: human, HEL cells

Examples with answers:
INSERT INTO measurements (structure_notation, assay_endpoint, measurement) VALUES
  ('CC(=O)OC[C@H]1S[C@@H](n2nc(C)c(=S)[nH]c2=O)C[C@@H]1OC(C)=O', 'MCC', '> 40 µM'),
  ('Cc1nn([C@H]2C[C@H](O)[C@@H](CO)S2)c(=O)nc1O', 'MCC', '> 200 µM'),
  ('Cc1nn([C@H]2C[C@H](O)[C@@H](CO)S2)c(=O)[nH]c1=S', 'MCC', '> 40 µM'),
  ('CCCc1nn([C@H]2C[C@H](O)[C@@H](CO)S2)c(=O)[nH]c1=O', 'MCC', '> 40 µM'),
  ('Nc1nc2c(ncn2COC(CO)CO)c(=O)[nH]1', 'MCC', '> 150 µM');

Please give the documented MCC of CCc1nn([C@H]2C[C@H](O)[C@@H](CO)S2)c(=O)nc1O > 40 µM

Complete the entry with MCC for Cc1nn([C@H]2C[C@H](O)[C@@H](CO)S2)c(=O)nc1N > 40 µM
